# Test system: CMK
# EXPERIMENTAL_PROTOCOL: cells
# Set-up: species or system AML cell lines (8); Secondary HTS, 10-point dose-response in triplicate, Cell Titer Glo viability, four-parameter fit EC50
# CONDITION: Homo sapiens, CMK, 72 h, read-out: CMK
ENDPOINT_NAME: EC50

Check out these entries, answers already filled in.
[
  {
    "COMPOUND": "COc1cc2c(NC3CCN(C)CC3)nc(N3CCCN(C)CC3)nc2cc1OCCCN(C)C",
    "ENDPOINT_NAME": "EC50",
    "MEASUREMENT": "> 10 µM"
  },
  {
    "COMPOUND": "Nc1ccn([C@@H]2O[C@H](CO)[C@@H](O)C2(F)F)c(=O)n1",
    "ENDPOINT_NAME": "EC50",
    "MEASUREMENT": "0.0084 µM"
  },
  {
    "COMPOUND": "CC(C)(C#N)c1ccc(N2C(=O)OCc3cnc4ccc(-c5cnc6ccccc6c5)cc4c32)cc1",
    "ENDPOINT_NAME": "EC50",
    "MEASUREMENT": "0.73 µM"
  },
  {
    "COMPOUND": "CC(C)Oc1ccc(-c2cnc3c(-c4ccnc5ccccc45)cnn3c2)cc1",
    "ENDPOINT_NAME": "EC50",
    "MEASUREMENT": "> 10 µM"
  },
  {
    "COMPOUND": "CS(=O)(=O)c1ccc(C(=O)Nc2ccc(Cl)c(-c3ccccn3)c2)c(Cl)c1",
    "ENDPOINT_NAME": "EC50",
    "MEASUREMENT": "> 10 µM"
  },
  {
    "COMPOUND": "CC(/C=C/C(=O)NO)=C\\[C@@H](C)C(=O)c1ccc(N(C)C)cc1",
    "ENDPOINT_NAME": "EC50",
    "MEASUREMENT": "0.047 µM"
  },
  {
    "COMPOUND": "CC1(C)CCC(C)(C)c2cc(NC(=O)c3ccc(C(=O)O)cc3)ccc21",
    "ENDPOINT_NAME": "EC50",
    "MEASUREMENT": "> 10 µM"
  },
  {
    "COMPOUND": "Clc1ccc(C(c2ccccc2Cl)C(Cl)Cl)cc1 (stereo not shown)",
    "ENDPOINT_NAME": "EC50",
    "MEASUREMENT": "> 10 µM"
  },
  {
    "COMPOUND": "C=C1CCCC2(C)C[C@H]3OC(=O)C(=C)[C@H]3CC12 (stereo in doubt)",
    "ENDPOINT_NAME": "EC50",
    "MEASUREMENT": "5.2 µM"
  },
  {
    "COMPOUND": "CC(=O)Nc1ccc(NC(=S)NC(=O)c2ccc(C(C)(C)C)cc2)cc1",
    "ENDPOINT_NAME": "EC50",
    "MEASUREMENT": "> 10 µM"
  }
]

# input for lookup
Q: Please report the recorded EC50 for CNC(=O)c1c(F)cccc1Nc1nc(Nc2cc3c(ccn3C(=O)CN(C)C)cc2OC)nc2[nH]ccc12 [SJ000821585, GSK1838705A] .
A: 5.8 µM

====

Entries annotated with measured U937 %inh
# System: U937
# Set-up: species or system AML cell lines (8); Primary HTS, single concentration about 10 uM, Cell Titer Glo viability; log10 luminescence, per cent inhibition relative to cycloheximide control
# CONDITION: 72 h, relative to cycloheximide control, log10 luminescence; inhibitor
Give the number; % is assumed, so skip it.

Q: Which measured U937 %inh value corresponds to COc1ccc2ncnc(Nc3ccc(OCc4ccccc4)cc3)c2c1 [SJ000573210-1, 0142W 95C*D] ?
A: -0.1655

Q: What does the record list as U937 %inh for `COc1cc2ncnc(Nc3ccc(C)c(O)c3)c2cc1OC` ?
A: 0.4968

Q: # lookup: U937 %inh of NC[C@H](CC(=O)O)c1ccc(Cl)cc1 (racemic)
A: 5.766

Q: Quick one: U937 %inh for C[C@]12C=CC(=O)C=C1CC[C@@H]1[C@@H]2[C@@H](O)C[C@@]2(C)[C@H]1CC[C@]2(O)C(=O)COP(=O)(O)O [SJ000555709-1, PREDNISOLONE SODIUM PHOSPHATE] ?
A: 2.195

Q: Query (compound): CCOC(=O)C(C)Oc1cccc2c(=O)n(CC(=O)Nc3ccc4c(c3)OCCO4)ccc12 (stereo not drawn) ; field requested: U937 %inh
A: -0.5022

Q: May I ask what U937 %inh has been recorded for `CC(=O)CCCCn1c(=O)c2c(ncn2C)n(C)c1=O` ?
A: -1.659

Q: Data request, read-out U937 %inh, for `COc1cc(Nc2ncc(-c3ccccc3)o2)cc(OC)c1OC`
A: 48.56

Q: Which U937 %inh is listed for `Cc1ccc2c(-c3ccnc(Nc4cccc(C(F)(F)F)c4)n3)c(-c3ccccc3)nn2n1` ?
A: 5.106

Q: Return reported U937 %inh; argument: `Cn1cc(C2=C(c3cn(C)c4cc(N)ccc34)C(=O)NC2=O)c2ccccc21`
A: 39.79

Value source: paper PMC6522510
